Biological target: T1, human LIV-1 (human, UniProt Q13433 29-755)
T1 sequence (looked up): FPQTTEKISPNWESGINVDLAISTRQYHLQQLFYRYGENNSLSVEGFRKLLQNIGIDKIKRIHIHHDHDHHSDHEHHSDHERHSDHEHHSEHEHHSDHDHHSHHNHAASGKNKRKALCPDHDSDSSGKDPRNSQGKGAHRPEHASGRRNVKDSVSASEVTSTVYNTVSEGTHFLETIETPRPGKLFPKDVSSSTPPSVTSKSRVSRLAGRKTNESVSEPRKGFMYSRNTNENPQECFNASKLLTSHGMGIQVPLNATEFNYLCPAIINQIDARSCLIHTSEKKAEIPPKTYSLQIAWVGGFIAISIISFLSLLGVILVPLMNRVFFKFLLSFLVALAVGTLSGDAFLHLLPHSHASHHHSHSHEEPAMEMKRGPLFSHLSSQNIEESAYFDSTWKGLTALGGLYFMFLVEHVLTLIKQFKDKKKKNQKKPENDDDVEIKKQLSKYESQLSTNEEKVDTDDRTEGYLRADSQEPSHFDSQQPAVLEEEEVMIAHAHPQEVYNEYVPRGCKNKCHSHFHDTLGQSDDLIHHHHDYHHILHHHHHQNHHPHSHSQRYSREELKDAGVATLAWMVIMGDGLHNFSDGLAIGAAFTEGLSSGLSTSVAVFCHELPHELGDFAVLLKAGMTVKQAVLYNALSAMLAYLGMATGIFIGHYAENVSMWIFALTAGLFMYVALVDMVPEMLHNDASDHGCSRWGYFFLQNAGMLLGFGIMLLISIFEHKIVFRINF
Test: cell-based or functional assay
parameter: Internalization EC50 (nM)
Answer with a number only, understood to be in nM.

- binder: "59C12C8 (antibody, V domains shown, Tested as chimeric antibody) VH: EVQLQQSGAELVRSGASVKLSCTASDFNIEDYYIHWVKQRPEQGLEWIGWIDPENGDTEYAPKFQGKATMTADTSSNTAYLQLSSLTSEDTAVYYCPHGGGFRVFDYWGQGTTLTVSS VL: DVLMTQTPLSLPVSLGDQASISCRSSQRIVHSNGNTYLEWYLQKPGQSPKLLIYKVSNRFSGVPDRFSGSGSGTDFTLKISRVEAEDLGVYYCFQGSHVPWTFGGGTKLEIK"
  recorded-value: 3.9
- binder: "282G5A2 (antibody, V domains shown, Tested as chimeric antibody) VH: QVQLQQSGAELVRPGTSVKVSCKASGYALTKYLIEWIKQRPGQGLEWIGVINPGNAGNNYNEKFKGKATLTVDQSSSTAYMQLSSLTSEDSAVYFCARRGRDYAMDNWGQGTSVTVSS VL: EIVLTQSPAIMSASLGEKVTMSCRASSSINYIYWYQQKSDASPKLWIYYTSNLAPGVPARFSGSGSGNSYSLTISSMEDEDAATYYCQQFTSSPLTFGAGTKLELK"
  recorded-value: 41.2
- binder: "39D10B2 (antibody, V domains shown, Tested as chimeric antibody) VH: QVQLKQSGPGLVQPSQSLSITCTVSGFSLTTYGVHWVRQSPGKGLEWLGVIWTGGTTDYNAAFISRLSISKDNSKSQVFFKMNSLQANDTAMYYCARGPSSYWGQGTLVTVSA VL: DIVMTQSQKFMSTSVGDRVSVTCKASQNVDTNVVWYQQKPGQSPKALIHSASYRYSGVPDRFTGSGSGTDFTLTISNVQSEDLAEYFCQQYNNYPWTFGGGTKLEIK"
  recorded-value: 16.9
- binder: "136F3D10C10 (antibody, V domains shown, Tested as chimeric antibody) VH: QVQLQQSGPELVKPGASVRIFCKASGYTFTSFHIHWVKQRPGQGLEWIGWIYPGNDNTDHNEKFKGKATLSADKSSSTVYMQLSSLTSEDSAVYFCGRSNYYGPLFAYWGQGTLVTVSA VL: DILMTQTPLSLPVSLGDQASISCRSSQNIVRSNGNTYLEWYLQKPGQSPKVLIYRVSNRFSGVPDRFSGSGSGTDFTLKISRVEAEDLGVYYCFQGSYVPYTFGGGTKLEIK"
  recorded-value: 32.2
- binder: "109C9D4 (antibody, V domains shown, Tested as chimeric antibody) VH: EVKLVESGGGLVQPGGSRKLSCAASGFTFSDYGMAWVRQAPGKGPEWVTFISNLAYSIYYADTVTGRFTISRENAKNTLYLEMSSLRSEDTAMYYCARVEENGNYFDYWGQGTTLTVSS VL: DIQMTQTTSSLSASLGDRVTIRCRASQDIGIYLHWYQQKPDGTVKLLIYYTSRLHSGVPSRFSGSRSGTDYSLTIGNLEQEDIATYFCLQGNTIPPTFGGGTKLEIK"
  recorded-value: 4.2

Turning now to a further record.
The binder listed as 293F10B6 (antibody, V domains shown, Tested as chimeric antibody) VH: QVTLKESGPGMLQPSQTLNLTCSFSGFSLNTSGMGVSWIRQPSGKGLEWLAHIFWDDDKRYNPSLKSRLTISKDVSSNQVFLKITSVDTADTATYFCARRARNNYPWFPYWGQGTLVTVSA VL: DIVLTQSPASLAVSLGQRATISCKASQSVDYDGDSYMNWYQQKPGQPPKLLIYAASNLDSGIPARFSGSGSGTDFTLNIHPMEDEDVATYYCQQSNGAPFTFGGGTKLEIK has a reported Internalization EC50 of 6.1
